assay: clinical; conditions: human, in vivo, 225 mg
METRIC: Cmax (ng/mL)

COMPOUND STRUCTURE: Cc1noc2c1-c1ccccc1C(c1ccc(Cl)cc1)=N[C@H]2CC(N)=O
OBSERVED VALUE: 2020

====

assay: clinical; conditions: human, in vivo, Median time to maximum plasma concentrations
METRIC: Tmax

COMPOUND STRUCTURE: Cc1noc2c1-c1ccccc1C(c1ccc(Cl)cc1)=N[C@H]2CC(N)=O
OBSERVED VALUE: 2 h

====

assay: clinical; details: human, in vivo, Terminal half-life, geometric mean (geometric CV)

MOLECULE: Cc1noc2c1-c1ccccc1C(c1ccc(Cl)cc1)=N[C@H]2CC(N)=O [pelabresib]
half-life (min): 918

====

test: clinical; details: human, in vivo, Exposure (bioavailability) of tablet greater than capsule
METRIC: bioavailability (%)

COMPOUND STRUCTURE: Cc1noc2c1-c1ccccc1C(c1ccc(Cl)cc1)=N[C@H]2CC(N)=O
METRIC: bioavailability
OBSERVED VALUE: 60

====

assay: clinical; settings: human, in vivo, Half-life (mean apparent terminal phase)

COMPOUND STRUCTURE: Cc1noc2c1-c1ccccc1C(c1ccc(Cl)cc1)=N[C@H]2CC(N)=O
half-life: ~15 h

====

assay: clinical; conditions: human, in vivo, Range of time of peak plasma concentrations

MOLECULE: Cc1noc2c1-c1ccccc1C(c1ccc(Cl)cc1)=N[C@H]2CC(N)=O [pelabresib]
Tmax: 0.5 to 7.4 h

====

assay: Plasma pharmacokinetics (LC-MS/MS, noncompartmental); conditions: human, plasma, oral, Terminal half-life, geometric mean (geometric CV), capsule
METRIC: half-life

COMPOUND STRUCTURE: Cc1noc2c1-c1ccccc1C(c1ccc(Cl)cc1)=N[C@H]2CC(N)=O
METRIC: half-life
OBSERVED VALUE: 11.6 h
